Let's go through some recorded IC50 values for RAF proto-oncogene serine/threonine-protein kinase (Mus musculus, UniProt Q99N57) together.
Value type: IC50 (µM)

>  <Compound>
CN(C)c1ccc(C2CC(c3ccc4c(c3)OCCO4)=NN2c2ccccc2)cc1 (centres undefined)

>  <Assayed system>
RAF proto-oncogene serine/threonine-protein kinase (Mus musculus, UniProt Q99N57)
Sequence (Q99N57 whole entry): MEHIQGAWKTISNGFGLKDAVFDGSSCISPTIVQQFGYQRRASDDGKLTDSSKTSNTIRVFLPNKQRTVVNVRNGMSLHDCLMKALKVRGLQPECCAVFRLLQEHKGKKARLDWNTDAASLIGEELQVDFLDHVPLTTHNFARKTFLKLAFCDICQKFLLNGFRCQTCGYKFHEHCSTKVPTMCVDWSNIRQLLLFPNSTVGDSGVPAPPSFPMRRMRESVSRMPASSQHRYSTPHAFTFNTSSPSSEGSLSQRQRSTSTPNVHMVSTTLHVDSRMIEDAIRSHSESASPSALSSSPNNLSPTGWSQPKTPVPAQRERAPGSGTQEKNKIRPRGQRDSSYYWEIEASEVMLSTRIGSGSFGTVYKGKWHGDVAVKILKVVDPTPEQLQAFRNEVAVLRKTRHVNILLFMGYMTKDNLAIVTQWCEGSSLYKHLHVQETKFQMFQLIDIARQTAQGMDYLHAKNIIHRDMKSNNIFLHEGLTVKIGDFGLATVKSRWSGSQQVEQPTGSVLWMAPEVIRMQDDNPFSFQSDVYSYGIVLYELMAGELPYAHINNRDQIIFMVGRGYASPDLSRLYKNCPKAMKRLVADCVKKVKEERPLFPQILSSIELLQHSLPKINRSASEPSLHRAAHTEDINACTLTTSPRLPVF

>  <Experimental result>
5.48

$$$$

(1) c1ccc(COc2ccc(C3CC(c4ccc5c(c4)OCCO5)=NN3c3ccccc3)cc2)cc1 (centres undefined)
(2) Clc1cccc(C2CC(c3ccc4c(c3)OCCO4)=NN2c2ccccc2)c1 (centres undefined)
(3) COc1cccc(C2CC(c3ccc4c(c3)OCCO4)=NN2c2ccccc2)c1 (centres undefined)
Task: Put the compounds in ascending order of IC50. Enter labels, ranked according to the request.
Output: 1, 2, 3

Origin of measurements: ChEMBL document CHEMBL3804763
